Answer each item with its documented INHIBITION.
System: Plasmodium berghei
test name: Screen against P. berghei liver stage (PbLuc), transformed with Luciferase, at 10uM
Assay type: functional, HepG2
condition parameters: tested at 10 uM
Screen size: about 69,000 compounds; about 8,600 (12%) showed an effect of 50% or more. This is one part of a sample in which strong results are shown more often than they occur.
Report the figure in % without appending any unit label.

Q: Given the compound CCCc1nc(C(=O)NCc2cccnc2-n2cncn2)cs1 , what is its reported INHIBITION?
A: -22.1

Q: Given the compound O=C(NCc1cccnc1-n1cncn1)c1cncc(Br)c1 , what is its reported INHIBITION?
A: 43.8

Q: Given the compound COc1cc(C(=O)N(Cc2ccco2)C2CC2)cc(OC)c1OC , what is its reported INHIBITION?
A: 53.4

Q: Given the compound COc1cc(C(=O)N(Cc2ccco2)C2CC2)cc2c1OCCO2 , what is its reported INHIBITION?
A: -2.37

====

Tested on: Plasmodium berghei
test name: Screen against P. berghei liver stage (PbLuc), transformed with Luciferase, at 10uM
Assay type: functional, HepG2
condition parameters: tested at 10 uM
The campaign covered roughly 69,000 compounds. About 8,600 (12%) showed an effect of 50% or more. This is one part of a sample in which strong results are shown more often than they occur.
# INHIBITION >= 40% gives YES, anything below gives NO

Q: Quick check: does CC(C)N1CCO[C@H]2CN(Cc3cc[nH]n3)C[C@H]21 have INHIBITION greater than or equal to 40%?
A: NO

Q: Quick check: does O=c1[nH]c(CCN2CCCCC2Cn2cccn2)nc2ccccc12 (configuration not stated) have INHIBITION greater than or equal to 40%?
A: NO

Q: Quick check: does CNC(=O)[C@@H]1C[C@H]2CN(c3ncccn3)C[C@H]2N1C(C)C have INHIBITION greater than or equal to 40%?
A: NO

Q: Quick check: does CCc1ccsc1C(=O)N1CCCN(Cc2cscn2)CC1 have INHIBITION greater than or equal to 40%?
A: NO

Q: Quick check: does CN(C)C(=O)N1CC2(CCN(S(C)(=O)=O)CC2)c2ccccc21 have INHIBITION greater than or equal to 40%?
A: NO

Q: Quick check: does CN1C(=O)CC2(CCN(S(=O)(=O)N(C)C)CC2)c2ccccc21 have INHIBITION greater than or equal to 40%?
A: NO

Q: Quick check: does CCCN1CCC(CNC(=O)C2(c3ccccc3)CCC2)C1 (configuration not stated) have INHIBITION greater than or equal to 40%?
A: YES

Q: Quick check: does CNC(=O)c1nc(COc2c(C)occc2=O)no1 have INHIBITION greater than or equal to 40%?
A: NO

Q: Quick check: does c1cc(CN2C[C@@H]3OCCN(CC4CCCO4)[C@@H]3C2)ccn1 (some centres not stated) have INHIBITION greater than or equal to 40%?
A: NO

Q: Quick check: does O=C(NC1CC1)[C@@H]1CCO[C@@H]2CCN(C3CCOCC3)C[C@@H]21 have INHIBITION greater than or equal to 40%?
A: NO

Q: Quick check: does CNC(=O)[C@@H]1CCO[C@@H]2CCN(CCc3ccccc3)C[C@H]21 have INHIBITION greater than or equal to 40%?
A: NO

Q: Quick check: does CCn1nc(C)c(CCNC(=O)c2cccc(-n3cccn3)c2)c1C have INHIBITION greater than or equal to 40%?
A: YES

Q: Quick check: does CC(=O)N[C@@H]1CN(C(=O)CC2CC2)C[C@H]1O have INHIBITION greater than or equal to 40%?
A: YES

Q: Quick check: does CC(C)Nc1ncc(-c2ccncc2)c([C@@H]2CCCO2)n1 have INHIBITION greater than or equal to 40%?
A: NO

Q: Quick check: does COc1ccc(CN2C[C@@H]3OCCN(CC4CCCO4)[C@@H]3C2)cc1 (some centres not stated) have INHIBITION greater than or equal to 40%?
A: NO

Q: Quick check: does Oc1ccc([C@H]2Oc3cc(O)cc(O)c3C[C@@H]2O)cc1 have INHIBITION greater than or equal to 40%?
A: NO

Q: Quick check: does CN1[C@H](CO)C[C@H](CNCc2ccc(Cl)c(F)c2)[C@@H]1c1ccccc1F have INHIBITION greater than or equal to 40%?
A: YES

Q: Quick check: does COc1ccc(CN2C[C@@H]3OCCN(CCN4CCCC4)[C@@H]3C2)cc1 have INHIBITION greater than or equal to 40%?
A: YES

Q: Quick check: does O=C(NCc1nccn1CCc1ccccc1)NCC1(O)CCC1 have INHIBITION greater than or equal to 40%?
A: NO

Q: Quick check: does CCOc1ncccc1CNC(=O)c1cccc(C)n1 have INHIBITION greater than or equal to 40%?
A: NO

Q: Quick check: does CC(C)Oc1cccc(F)c1C(C(=O)O)N1CCCN(C)CC1 (configuration not stated) have INHIBITION greater than or equal to 40%?
A: NO

Q: Quick check: does O=C(NC1CCC1)[C@@H]1CCO[C@@H]2CCN(CCc3ccccc3)C[C@H]21 have INHIBITION greater than or equal to 40%?
A: YES

Q: Quick check: does Cc1cc(-c2cc(N)c(=O)n(CC(=O)NC3CCCCC3)n2)c(C)o1 have INHIBITION greater than or equal to 40%?
A: NO

Q: Quick check: does CN1C(=O)CC2(CCN(S(=O)(=O)C3CC3)CC2)c2ccccc21 have INHIBITION greater than or equal to 40%?
A: YES

Q: Quick check: does CNC(=O)[C@H]1C[C@@H]2CN(Cc3cccnc3OC)C[C@@H]2N1C(C)C have INHIBITION greater than or equal to 40%?
A: NO

Q: Quick check: does CC(=O)N1CCN(CCNS(=O)(=O)c2c(F)cccc2F)CC1 have INHIBITION greater than or equal to 40%?
A: NO

Q: Quick check: does CN(C)c1ccc(CNC(=O)c2ccc(Cl)cc2F)cc1 have INHIBITION greater than or equal to 40%?
A: NO

Q: Quick check: does Cc1cccc(C(=O)N2C[C@@H](OCc3ccncc3)[C@@H]3OCCC[C@@H]32)n1 have INHIBITION greater than or equal to 40%?
A: NO

Q: Quick check: does Fc1ccc(CN2C[C@@H]3OCCN(CC4CCCO4)[C@@H]3C2)cc1 (some centres not stated) have INHIBITION greater than or equal to 40%?
A: YES

Q: Quick check: does Cc1cc(C(=O)N2C[C@@H]3CC[C@H]2CN(Cc2ccccn2)C3)nc(C)n1 have INHIBITION greater than or equal to 40%?
A: NO

Q: Quick check: does CN(C)C(=O)N1CC2(CCN(S(=O)(=O)C3CC3)CC2)c2ccccc21 have INHIBITION greater than or equal to 40%?
A: NO

Q: Quick check: does CC(C)n1c(=O)c2ccccc2n(CCN2CCCCC2)c1=O have INHIBITION greater than or equal to 40%?
A: NO

Sourced from ChEMBL document CHEMBL4513216
